Quick list: viability per entry.
protocol: growth suppression of PTEN-deleted HCT116, pilot screen, cell-based, HCT116 clonal line, CellTiter-Glo (AID 824);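 note: 0% = 20 µM Hyamine control and 100% = vehicle cell control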
measurement context: 60 h, at 10 µM, hits give low values
Results filed as inconclusive are left out.
recorded endpoint: viability (%)

compound: CCc1ccc(C(=O)NCc2cccs2)s1
numeric readout: 97.1

compound: COC(=O)C1=CN(C(C)C)C=C(C(=O)OC)C1c1cccc(OC)c1
numeric readout: 63.2

compound: CCOC1CCCCC1NS(=O)(=O)c1ccc(Cl)cc1 (stereo not drawn)
numeric readout: 91.7

====

protocol: OD615 S. cerevisiae growth inhibition, permissive medium, pilot counter-assay, permissive growth control for S. cerevisiae lifespan shortening project (AID 705)
measurement context: OD615, 24 h, at 10 µM, hits give high values
This section presents molecules with their documented growth inhibition values.
recorded endpoint: growth inhibition (%)

molecule: O=C(CN1CCN(C(=O)c2ccco2)CC1)Nc1ccccc1-c1ccccc1
numeric readout: 6.65
//
molecule: CNC(=O)c1sc2nc(-c3ccc(OC)cc3)cn2c1C
numeric readout: 3.27
//
molecule: COC(=O)c1c(NC(=O)CSc2nnnn2-c2ccccc2)sc2c1CCC(C)C2 (stereo not given)
numeric readout: -21.3
//
molecule: COc1ccc(CCNc2nc(=O)[nH]nc2C)cc1OC
numeric readout: -14.6
//
molecule: CCOc1ccc(CC(=O)Nc2c(C(N)=O)oc3ccc(Br)cc23)cc1OCC
numeric readout: -12
//
molecule: Cc1ccc(-c2cc(C(F)(F)F)n3ncc(C(=O)NCc4ccco4)c3n2)cc1
numeric readout: -5.88
//
molecule: O=C(c1ccco1)N1CCN(C(=O)c2oc(=O)c3ccccc3c2-c2ccccc2)CC1
numeric readout: -6.24
//
molecule: CCCCN(C)CCNC(=O)Cn1c(=O)sc2ccccc21
numeric readout: -0.71
//
molecule: CNC(=O)CN1C(=O)c2ccccc2S1(=O)=O
numeric readout: -5.12
//
molecule: CCOC(=O)Cn1c(=O)oc2cc(S(=O)(=O)N3CCCC(C(=O)OCC)C3)ccc21 (stereo not given)
numeric readout: -2.33
//
molecule: COc1ccc(S(=O)(=O)Cc2ccc(C(=O)NCc3cccnc3)o2)cc1
numeric readout: -4.57
//
molecule: Cc1ccc(Cl)cc1NC(=O)COC(=O)C1CCCC1
numeric readout: -22
//
molecule: O=C(NCCN1C(=O)C2C3C=CC(C3)C2C1=O)NCc1ccccc1 (stereo not given)
numeric readout: -14.8
//
molecule: O=C1CSC(=O)N1CC(O)COc1ccc(Cl)cc1 (stereo not given)
numeric readout: 0.955
//
molecule: Cc1nnc(NC(=O)CSc2nnc(CNC(=O)c3ccccc3)n2-c2ccccc2)s1
numeric readout: -5
